- Tested on: OVCAR-5 ovarian
- Assay comment: NCI tumour cell line growth inhibition, 48 h
// values below are reported TGI

Compound	Tested system	Reported relation	TGI, µM
CCc1ccc(C2=NN(c3ccc(S(C)(=O)=O)cc3)C(=O)CC2)cc1	OVCAR-5 ovarian	>	100
Cc1cc(C)nc(NC(=S)Nc2ccc(Cl)cc2)c1	OVCAR-5 ovarian	>	100
C=CC[PH+](c1ccccc1)c1ccccc1.C=CC[PH+](c1ccccc1)c1ccccc1.[Pt+2].[S-]c1ncccn1.[S-]c1ncccn1	OVCAR-5 ovarian	=	34.6
Cc1cn2c(/C=C3/C(=O)Nc4ccc(C(=O)O)cc43)c(C)nc2s1	OVCAR-5 ovarian	>	100
Clc1ccc(Cn2cc(/C=N/n3cnnc3)c3ccccc32)cc1	OVCAR-5 ovarian	=	42.5
CCN(CC)Cc1ccc(Nc2c3ccccc3nc3ccccc23)cc1	OVCAR-5 ovarian	=	5.46
CCOC(=O)C1=CSC2=NC3=C(CCC/C3=C\c3cc(OC)c(OC)c(OC)c3)C(c3cc(OC)c(OC)c(OC)c3)N12 (stereo not given)	OVCAR-5 ovarian	>	100
COc1cccc(Nc2nc(NS(=O)(=O)c3cc(C)c(Cl)cc3S)n[nH]2)c1	OVCAR-5 ovarian	>	100
O=C1c2ccoc2C(=O)c2oc(=O)ccc21	OVCAR-5 ovarian	=	33.9
Cn1c(=O)n2n(c1=O)C(S(=O)c1ccccc1)C2 (stereo not given)	OVCAR-5 ovarian	>	100

---

// values below are reported TGI
- Tested on: K-562 leukemia
- Assay comment: NCI tumour cell line growth inhibition, 48 h

Compound	TGI
CCOc1cc2c(cc1O)CC[C@@H]1[C@@H]2CC[C@]2(C)[C@@H](O)CC[C@@H]12	6.24 µM
COc1cccc(/C=N/[N-]C(N)=O)c1[O-].[OH3+].[Pd+2]	> 100 µM
CC(C)CCCC(C)[C@H]1CCC2[C@@H]3CCC4Cc5nc6c(nc5C[C@]4(C)C3CC[C@@]21C)CC1CC[C@@H]2C(CC[C@@]3(C)C2CC[C@@H]3O)[C@@]1(C)C6 (stereo not given in full)	> 100 µM
CC1(C)OC2OC(COC(=O)C(c3ccccc3)c3ccccc3)C3OC(C)(C)OC3C2O1 (stereo not given)	> 100 µM
COC(=O)C1=Nc2ccc(F)cc2/C1=C/c1sc(=S)[nH]c1O	> 100 µM
O=C(/C=C/c1ccc(Cl)cc1)c1ccc(Cl)s1	> 100 µM
CCN(CC)CCS(=O)(=O)CCNc1ccnc2cc(Cl)ccc12	> 49.8 µM
O=C1c2ccoc2C(=O)c2oc(=O)ccc21	22.4 µM
Cc1cc2c3c(c1)CCCN3CCC2	> 10 µM
Oc1c(I)cc(Cl)c2cccnc12	> 100 µM
O=C([O-])C1([n+]2c(-c3ccccc3)cc(-c3ccccc3)cc2-c2ccccc2)CC1	> 100 µM
CC(=O)OC1CC[C@@]2(C)C(=CC[C@@H]3[C@@H]2CC[C@]2(C)C(OC(C)=O)[C@H](n4ccnc4)C[C@@H]32)C1 (stereo not given in full)	86.3 µM
CC(=O)Oc1ccc(/C=C/C(=O)NCCOC(=O)/C=C/c2ccc(OC(C)=O)c(OC(C)=O)c2)cc1OC(C)=O	> 100 µM
CC1=NNC(=O)[C@H]2[C@H]1CCC1[C@@H]2CC[C@]2(C)[C@@H](O)CC[C@@H]12 (stereo not given in full)	> 100 µM
CC/C(=C(/c1ccc(/C=C/C(=O)O)cc1)c1ccc2[nH]ncc2c1)c1ccc(F)cc1Cl	41 µM
CCCC(=O)OC1C(C2COC(C)(C)O2)OC2OC(C)(C)OC21 (stereo not given)	> 100 µM
N#Cc1cccc(C2C3=C(COC3=O)N(CCO)c3cc4c(cc32)CCC4)c1 (stereo not given)	> 50 µM
O/N=C1\CSc2ccccc2C1	> 100 µM
COc1cc2c3c(n(CCCN4CCSCC4)c(=O)c2cc1OC)-c1cc2c(cc1C3=O)OCO2	47.8 µM
Cc1ccc(NC(=O)c2ccc(NC3=C(Cl)C(=O)N(Cc4ccccc4)C3=O)cc2)cc1Cl	12 µM
